In this section we review reported IC50 values for a set of molecules.
study_target: recombinant BRD4 BD2 (Homo sapiens, UniProt O60885)
Construct: for recombinant BRD4 BD1 and BRD4 BD2 proteins
experiment_notes: Competitive fluorescence-polarization (FP) binding assay, BRD4 BD2; further: probe 1.5 nM
stated_conditions: competitive FP assay; protein 6 nM, probe […]; read-out: IC50 (nM) BRD4 BD2

[[record]]
substance_smiles = "COc1cc2c(cc1-c1c(C)noc1C)[nH]c1nc(C)nc(Oc3cccc(Cl)c3)c12"
study_target = "recombinant BRD4 BD2 (Homo sapiens, UniProt O60885)"
result = "> 1000 nM"

[[record]]
substance_smiles = "COc1cc2c(cc1-c1c(C)noc1C)[nH]c1nc(C)nc(Nc3cc(C(C)(C)C)ns3)c12"
study_target = "recombinant BRD4 BD2 (Homo sapiens, UniProt O60885)"
result = "> 1000 nM"


// IC50 lookup, molecule = COc1cc2c(cc1-c1c(C)noc1C)[nH]c1nc(C)nc(Sc3c[nH]c4ccccc34)c12 , result: > 1000 nM
